The measured values listed here are drawn from patent US12344610B2.

experimental.system: APOL1 G2 (Homo sapiens, UniProt O14791, DEL388-389)
Construct: expressed in transfected cells; host or cells: HEK293 T-REx clonal line stably expressing GCaMP6f (HEK T-REx/GCaMP6f/APOL1 G2 K6.3), doxycycline induced
Sequence (O14791 with tags, fused parts or gaps DEL388-389): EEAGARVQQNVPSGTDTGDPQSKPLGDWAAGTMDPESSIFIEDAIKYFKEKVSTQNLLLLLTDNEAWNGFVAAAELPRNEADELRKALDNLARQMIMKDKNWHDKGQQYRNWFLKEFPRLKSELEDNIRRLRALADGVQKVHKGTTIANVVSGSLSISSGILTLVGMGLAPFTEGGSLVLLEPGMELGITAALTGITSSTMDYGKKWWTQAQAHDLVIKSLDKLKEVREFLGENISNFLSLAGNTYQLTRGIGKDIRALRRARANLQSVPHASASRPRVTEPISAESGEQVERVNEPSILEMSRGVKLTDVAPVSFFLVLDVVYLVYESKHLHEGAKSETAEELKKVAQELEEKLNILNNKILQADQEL
method.description: APOL1-mediated calcium transport (calcium influx) assay, HEK T-REx/GCaMP6f/APOL1 G2 K6.3 cells, FLIPR TETRA
Assay type: cell-based
test.parameters: prevention of calcium influx; geometric mean of at least 2 assay runs; † = average of a technical replicate from a single assay run
AC50 vs 700 nM: less than gives condition met; not less than gives condition not met.

Some solved entries appear below for comparison.
> print(dat)
                                   compound        group.label
1  C[C@]1(O)C[C@@H](n2cnc3cc(OCCN4CCC5(CC4)C(=O)Nc4ccc(Cl)cc45)cc(F)c32)C1      condition met
2  CC(COc1ccc2c(c1)CCC(=O)N2C)N1CCC2(CC1)C(=O)Nc1ccc(C#N)cc12 (single isomer, unassigned) [Compound 204]  condition not met
3  O=C1Cc2cc(OCCN3CCC4(CC3)C(=O)Nc3ccc(Cl)cc34)cc(F)c2N1      condition met

I wonder whether Cc1cc(OCCN2CCC3(CC2)C(=O)Nc2ccc(C#N)cc23)ccc1S(C)(=O)=O has AC50 below 700 nM. Can you tell?
condition not met

AC50 strictly < 700 nM for this compound? CC(c1ccc(OCCN2CCC3(CC2)C(=O)Nc2ccc(Cl)cc23)cc1)S(C)(=O)=O (single isomer, unassigned) [Compound 40]
condition met

Please let me know if O=C1OC2(COC2)c2ccc(OCCN3CCC4(CC3)C(=O)Nc3ccc(Cl)cc34)cc21 shows AC50 below 700 nM.
condition met

Say whether its AC50 is strictly beneath 700 nM. Entry: O=C1CCc2cc(OCCN3CCC4(CC3)C(=O)Nc3ccc(Cl)cc34)ccc2N1
condition not met
